B1: CPEB3 Ribozyme (parent)
chain: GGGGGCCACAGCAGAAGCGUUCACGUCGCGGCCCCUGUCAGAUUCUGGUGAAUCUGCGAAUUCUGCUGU

variants of: B1; assay: self-cleavage, relative activity (ratio to wild type); higher = more cleavage; co-transcriptional
Outcome label depends on self-cleavage relative to 0.9: at/above gives yes (1), below gives no (0).

Use these answered entries as a reference point.
{"sequence": "GGGGGGCACAGCAGAAGCGUUCACGCCGCGGCCCCUGUCAGAUUCUGGUGAAUCUGCGAAUUCUGCUGU [C6G U26C]", "categoryLabel": "no (0)"}
{"sequence": "GGGGGCCGCAGCAGAAGCGUUCACGUCGCGGCCCCUGUCAGAUUCUAGUGAAUCUGCGAAUUCUGCUGU [A8G G47A]", "categoryLabel": "yes (1)"}
{"sequence": "GGGGGCCACAGCAGAAGCGUUCACGUCGCGGCCCCUGUCAGAUUCUGGUGAAUGGGCGAAUUCUGCUGU [C54G U55G]", "categoryLabel": "no (0)"}
{"sequence": "GGUGGCCACAGCAGAAGCGUUCACGUCACGGCCCCUGUCAGAUUCUGGUGAAUCUGCGAAUUCUGCUGU [G3U G28A]", "categoryLabel": "no (0)"}
{"sequence": "GGGGGCCACAGCAGAAGCGUUCCCGUCGCGGUCCCUGUCAGAUUCUGGUGAAUCUGCGAAUUCUGCUGU [A23C C32U]", "categoryLabel": "no (0)"}

Would you say GGGGGCCACAGCAGUAGCGUUCACGUCGCGGCCCCUGUCAGAUUCUGGUGAAUCUUCGAAUUCUGCUGU [A15U G56U] shows self-cleavage at minimum 0.9?
no (0)
